# Tested on: SUM149PT spheroids with HUVEC/MSC, viability
# experiment: Anticancer human tumor SUM149PT cell line growth inhibition [GQUAD];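 also: spheroids exposed to drugs for seven days before readout; percent viability relative to DMSO vehicle control taken as 100%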
# measurement.setup: second compound 0.1 µM; first compound 0.0316 µM; stronger effect = lower value
value.kind: viability, T/C (%)
Report the figure in % without appending any unit label.

Tell me measured viability, T/C for COc1cc(C2c3cc4c(cc3C(OC3OC5COC(C)OC5C(O)C3O)C3COC(=O)C23)OCO4)cc(OC)c1O (stereo not given) + Cc1[nH]c2ccc(F)cc2c1-c1nc2c3cccnc3c3ncccc3c2[nH]1 please.
105

Tell me measured viability, T/C for CC[C@@]1(O)C(=O)OCc2c1cc1n(c2=O)Cc2cc3c(CN(C)C)c(O)ccc3nc2-1 + Cc1cnc(CNC(=O)c2c(=O)c3ccc(N4CCCN(C)CC4)nc3n3c2sc2ccccc23)cn1 please.
43.5

Tell me measured viability, T/C for C=CC(=O)N1CCN(c2nc(=O)n(-c3c(C)ccnc3C(C)C)c3nc(-c4c(O)cccc4F)c(F)cc23)C(C)C1 (stereo not given) + Cc1cnc(CNC(=O)c2c(=O)c3ccc(N4CCCN(C)CC4)nc3n3c2sc2ccccc23)cn1 please.
62.4

Tell me measured viability, T/C for COc1ncnc(C2CC2)c1-c1ncc2cnn(Cc3ccc(-c4nc(C(F)(F)F)cn4C(C)C)cc3)c2n1 + Cc1cnc(CNC(=O)c2c(=O)c3ccc(N4CCCN(C)CC4)nc3n3c2sc2ccccc23)cn1 please.
55.3

Tell me measured viability, T/C for O=C(NO)c1cnc(N2CCN(S(=O)(=O)c3ccc4ccccc4c3)CC2)nc1 + Cc1[nH]c2ccc(F)cc2c1-c1nc2c3cccnc3c3ncccc3c2[nH]1 please.
102
